Data provenance is patent US10544153B2.

assay: Oral PK in rats: plasma concentrations of oxymorphone by LC-MS/MS; conditions: oxymorphone released, conjugate equivalent to 2 mg/kg freebase oxycodone
# tmax values compiled below
Respond numerically; units are min and should not be typed.

COc1ccc2c3c1O[C@H]1C(OC(=O)c4ccc(O)cc4)=CC[C@@]4(O)[C@@H](C2)N(C)CC[C@]314 [Conjugate 4-OH-Bz-OC] ... 15
COc1ccc2c3c1O[C@H]1C(OC(=O)c4cccc(N)c4)=CC[C@@]4(O)[C@@H](C2)N(C)CC[C@]314 [Conjugate 3-ABz-OC] ... 26.4
COc1ccc2c3c1OC1C(OC(=O)C(C)c4cccc(Oc5ccccc5)c4)=CCC4(O)C(C2)N(C)CCC314 (mixture of isomers) [6-Fenoprofen-OC] ... 15
COc1ccc2c3c1OC1C(OC(=O)C(C)c4ccc(CC(C)C)cc4)=CCC4(O)C(C2)N(C)CCC314 (mixture of isomers) [Conjugate 6-lbu-OC] ... 69
COc1ccc2c3c1OC1C(OC(=O)C(C)c4cccc(C(=O)c5ccccc5)c4)=CCC4(O)C(C2)N(C)CCC314 (mixture of isomers) [6-Ketoprofen-OC] ... 15
COc1ccc(C(=O)OC2=CC[C@@]3(O)[C@H]4Cc5ccc(OC)c6c5[C@@]3(CCN4C)[C@H]2O6)cc1 [Conjugate 4-MeO-Bz-OC] ... 15

Okay, now this molecule:
Lookup: What value of tmax has been reported for the following molecule? COc1ccc2c3c1O[C@H]1C(OC(=O)/C=C/c4ccccc4)=CC[C@@]4(O)[C@@H](C2)N(C)CC[C@]314 [6-Cinnamate-OC]
Found: 21

* * *

test: Intranasal PK in rats (Table 4); conditions: title: oxymorphone released (released oxycodone), equivalent to 2 mg/kg freebase oxycodone
measurement_name: Cmax (ng/mL)
Respond numerically; units are ng/mL and should not be typed.

Lookup: What value of Cmax has been reported for the following compound? COc1ccc2c3c1O[C@H]1C(OC(=O)/C=C/c4ccccc4)=CC[C@@]4(O)[C@@H](C2)N(C)CC[C@]314 [6-Cinnamate-OC]
Found: 497.2

* * *

assay: Tamper resistance: percent of OC released under tampering conditions, LC-MS/MS; assay type: physicochemical; details: 1N HCl, RT, 1 hour
# percent of OC released values compiled below
Respond numerically; units are % and should not be typed.

Some compounds with recorded percent of OC released:
COc1ccc2c3c1OC1C(OC(=O)C(C)c4cccc(C(=O)c5ccccc5)c4)=CCC4(O)C(C2)N(C)CCC314 (mixture of isomers) ... 2
COc1ccc2c3c1OC1C(OC(=O)C(C)c4ccc(CC(C)C)cc4)=CCC4(O)C(C2)N(C)CCC314 (mixture of isomers) [Conjugate 6-lbu-OC] ... 2
COc1ccc2c3c1O[C@H]1C(OC(=O)c4cccc(O)c4)=CC[C@@]4(OC(=O)c5cccc(O)c5)[C@@H](C2)N(C)CC[C@]314 ... 0
COc1ccc2c3c1O[C@H]1C(OC(=O)/C=C/c4ccccc4)=CC[C@@]4(O)[C@@H](C2)N(C)CC[C@]314 [6-Cinnamate-OC] ... 0
COc1ccc(C(=O)OC2=CC[C@@]3(OC(=O)c4ccc(OC)cc4)[C@H]4Cc5ccc(OC)c6c5[C@@]3(CCN4C)[C@H]2O6)cc1 ... 0

Okay, now this compound:
Lookup: What value of percent of OC released has been reported for the following compound? COc1ccc2c3c1O[C@H]1C(OC(=O)c4ccccc4N)=CC[C@@]4(O)[C@@H](C2)N(C)CC[C@]314 [Conjugate 2-ABz-OC]
Found: 0

* * *

assay: Oral PK in rats: plasma concentrations of oxymorphone by LC-MS/MS; conditions: oxymorphone released, conjugate equivalent to 2 mg/kg freebase oxycodone
measurement_name: Cmax (ng/mL)
Respond numerically; units are ng/mL and should not be typed.

Lookup: What value of Cmax has been reported for the following compound? COc1ccc(C(=O)OC2=CC[C@@]3(O)[C@H]4Cc5ccc(OC)c6c5[C@@]3(CCN4C)[C@H]2O6)cc1 [Conjugate 4-MeO-Bz-OC]
Found: 4.7

Lookup: What value of Cmax has been reported for the following compound? COc1ccc2c3c1OC1C(OC(=O)C(C)c4cccc(C(=O)c5ccccc5)c4)=CCC4(O)C(C2)N(C)CCC314 (mixture of isomers) [6-Ketoprofen-OC]
Found: 3.7

Lookup: What value of Cmax has been reported for the following compound? COc1ccc2c3c1O[C@H]1C(OC(=O)c4cccc(N)c4)=CC[C@@]4(O)[C@@H](C2)N(C)CC[C@]314 [Conjugate 3-ABz-OC]
Found: 2.0

Lookup: What value of Cmax has been reported for the following compound? COc1ccc2c3c1OC1C(OC(=O)C(C)c4cccc(Oc5ccccc5)c4)=CCC4(O)C(C2)N(C)CCC314 (mixture of isomers) [6-Fenoprofen-OC]
Found: 3.3

* * *

assay: Tamper resistance: percent of OC released under tampering conditions, LC-MS/MS; type: physicochemical; conditions: 1N HCl, RT, 1 hour
measurement_name: percent of OC released

Some molecules with recorded percent of OC released:
COc1ccc2c3c1O[C@H]1C(OC(=O)c4ccccc4O)=CC[C@@]4(O)[C@@H](C2)N(C)CC[C@]314 [Conjugate 2-OH-Bz-OC] ... 0%
COc1ccc2c3c1O[C@H]1C(OC(=O)c4ccc(O)cc4)=CC[C@@]4(O)[C@@H](C2)N(C)CC[C@]314 [Conjugate 4-OH-Bz-OC] ... 0%
COc1ccc2c3c1O[C@H]1C(OC(=O)c4cccc(N)c4)=CC[C@@]4(O)[C@@H](C2)N(C)CC[C@]314 [Conjugate 3-ABz-OC] ... <1%
COc1ccc2c3c1O[C@H]1C(OC(=O)c4ccccc4)=CC[C@@]4(O)[C@@H](C2)N(C)CC[C@]314 ... 0%

Lookup: What value of percent of OC released has been reported for the following molecule? COc1ccc2c3c1O[C@H]1C(OC(=O)c4ccc(O)cc4)=CC[C@@]4(OC(=O)c5ccc(O)cc5)[C@@H](C2)N(C)CC[C@]314
Found: 0%

Lookup: What value of percent of OC released has been reported for the following molecule? COc1ccc2c3c1O[C@H]1C(OC(=O)c4cccc(O)c4)=CC[C@@]4(O)[C@@H](C2)N(C)CC[C@]314 [Conjugate 3-OH-Bz-OC]
Found: <1%

Lookup: What value of percent of OC released has been reported for the following molecule? COc1ccc2c3c1O[C@H]1C(OC(=O)c4ccccc4)=CC[C@@]4(OC(=O)c5ccccc5)[C@@H](C2)N(C)CC[C@]314
Found: 0%

* * *

assay: Oral PK in rats: plasma concentrations of oxymorphone by LC-MS/MS; conditions: oxymorphone released, relative to oxycodone (OC)
measurement_name: %-Cmax of OC (%)
Respond numerically; units are % and should not be typed.

COc1ccc2c3c1OC1C(OC(=O)C(C)c4cccc(Oc5ccccc5)c4)=CCC4(O)C(C2)N(C)CCC314 (mixture of isomers) [6-Fenoprofen-OC] ... 68
COc1ccc(C(=O)OC2=CC[C@@]3(O)[C@H]4Cc5ccc(OC)c6c5[C@@]3(CCN4C)[C@H]2O6)cc1 [Conjugate 4-MeO-Bz-OC] ... 63

Okay, now this compound:
Lookup: What value of %-Cmax of OC has been reported for the following compound? COc1ccc2c3c1O[C@H]1C(OC(=O)c4ccc(O)cc4)=CC[C@@]4(O)[C@@H](C2)N(C)CC[C@]314 [Conjugate 4-OH-Bz-OC]
Found: 49

* * *

# %-AUC of OC values compiled below
assay: Intranasal PK in rats: plasma concentrations of released oxymorphone by LC-MS/MS; conditions: Table 6, relative to oxycodone (OC)
Respond numerically; units are % and should not be typed.

Some molecules with recorded %-AUC of OC:
COc1ccc2c3c1OC1C(OC(=O)C(C)c4ccc(CC(C)C)cc4)=CCC4(O)C(C2)N(C)CCC314 (mixture of isomers) [Conjugate 6-lbu-OC] ... 11
COc1ccc2c3c1O[C@H]1C(OC(=O)c4ccc(O)cc4)=CC[C@@]4(O)[C@@H](C2)N(C)CC[C@]314 [Conjugate 4-OH-Bz-OC] ... 58
COc1ccc(C(=O)OC2=CC[C@@]3(O)[C@H]4Cc5ccc(OC)c6c5[C@@]3(CCN4C)[C@H]2O6)cc1 [Conjugate 4-MeO-Bz-OC] ... 65

Okay, now this molecule:
Lookup: What value of %-AUC of OC has been reported for the following molecule? COc1ccc2c3c1O[C@H]1C(OC(=O)/C=C/c4ccccc4)=CC[C@@]4(O)[C@@H](C2)N(C)CC[C@]314 [6-Cinnamate-OC]
Found: 18

* * *

assay: Intranasal PK in rats: plasma concentrations of released oxymorphone by LC-MS/MS; settings: Table 6, relative to oxycodone (OC)
measurement_name: %-Cmax of OC

Some compounds with recorded %-Cmax of OC:
COc1ccc2c3c1OC1C(OC(=O)C(C)c4ccc(CC(C)C)cc4)=CCC4(O)C(C2)N(C)CCC314 (mixture of isomers) [Conjugate 6-lbu-OC] ... 11%
COc1ccc2c3c1O[C@H]1C(OC(=O)/C=C/c4ccccc4)=CC[C@@]4(O)[C@@H](C2)N(C)CC[C@]314 [6-Cinnamate-OC] ... 18%
COc1ccc(C(=O)OC2=CC[C@@]3(O)[C@H]4Cc5ccc(OC)c6c5[C@@]3(CCN4C)[C@H]2O6)cc1 [Conjugate 4-MeO-Bz-OC] ... 60%

Okay, now this compound:
Lookup: What value of %-Cmax of OC has been reported for the following compound? COc1ccc2c3c1O[C@H]1C(OC(=O)c4ccc(O)cc4)=CC[C@@]4(O)[C@@H](C2)N(C)CC[C@]314 [Conjugate 4-OH-Bz-OC]
Found: 61%
